# assay_name: Pharmacokinetic profile in male CD-1 mice
# Assay type: in vivo
# test_conditions: mouse, plasma, single oral dose 7 mg/kg
measure: Cmax (ng/mL)
// units = ng/mL; emit number, no label

What value of Cmax has been recorded for this entry: "C=CC(=O)N1CCc2nc(-c3nc(-c4ccc5c(c4)CCNC5)c4ccsc4c3-c3ccc(F)cc3OCCOC)sc2C1" 166

---

# assay_name: Pharmacokinetic profile in male CD-1 mice
# Assay type: in vivo
# test_conditions: mouse, plasma, oral dose 300 mg/kg vs 3 mg/kg IV
measure: bioavailability (%)
// units = %; emit number, no label

What value of bioavailability has been recorded for this entry: C=CC(=O)N1CCc2nc(-c3nc(-c4ccc5c(c4)CCNC5)c4ccsc4c3-c3ccc(F)cc3OCCOC)sc2C1 [Compound 58] 66

---

# assay_name: Pharmacokinetic profile in male CD-1 mice
# Type: in vivo
# test_conditions: mouse, plasma, oral dose 100 mg/kg vs 3 mg/kg IV
measure: bioavailability (%)
// units = %; emit number, no label

What value of bioavailability has been recorded for this entry: "C=CC(=O)N1CCc2nc(-c3nc(-c4ccc5c(c4)CCNC5)c4ccsc4c3-c3ccc(F)cc3OCCOC)sc2C1" 88

---

# Tested on: pAKT in Tet-on KRAS G12D HeLa cells
# assay_name: Cell-based pAKT HTRF assay in Tet-on KRAS G12D HeLa cells
# test_conditions: Tet-on KRAS G12D HeLa cells; read-out: pAKT inhibition IC50 in Tet-on KRAS G12D HeLa cells
The entries below come with measured IC50 values attached.

These solved cases illustrate the format of a correct answer.
>>> df
                                   compound                        system_tested      result
0  COCCOc1cc(F)ccc1-c1c(-c2cccc(CNC(=O)C(C)(C)C)c2)nc(-c2ccc3c(c2)CCNC3)c2ccsc12 [compound 18]  pAKT in Tet-on KRAS G12D HeLa cells  1 to 10 µM
1  C=CC(=O)NCCc1cccc(-c2nc(-c3ccc4c(c3)CCNC4)c3ccsc3c2-c2ccc(F)cc2OCCOC)c1 [compound 40]  pAKT in Tet-on KRAS G12D HeLa cells  1 to 10 µM
2  C=CC(=O)Nc1cccc(-c2nc(-c3ccc4c(c3)CCN(C)C4)c3ccsc3c2-c2ccc(F)cc2OCCOC)c1 [compound 32]  pAKT in Tet-on KRAS G12D HeLa cells      < 1 µM
3  C=CC(=O)N1CCc2ccc(-c3nc(-c4ccc5c(c4)CCNC5)c4ccsc4c3-c3ccc(F)cc3OCCOC)cc2C1 [compound 42]  pAKT in Tet-on KRAS G12D HeLa cells      < 1 µM

What value of IC50 has been recorded for this entry: COCCOc1ccccc1-c1c(-c2cccc(Cl)c2)nc(-c2ccc3c(c2)CCNC3)c2ccsc12 [compound 6] 1 to 10 µM

What value of IC50 has been recorded for this entry: C=CC(=O)N1CC[C@@H](n2cc(-c3nc(-c4ccc5c(c4)CCNC5)c4ccsc4c3-c3ccc(F)cc3OCCOC)cn2)C1 [compound 46] < 1 µM

---

# System: pAKT (Ser473) in BT474 CDX tumors
# assay_name: Pharmacodynamic activity (tumor pAKT) in BT474 cell line-derived xenograft model
# Format: in vivo, mice
# test_conditions: Mus musculus, BT-474, plasma concentration vs tumor pAKT, read-out: in vivo EC50 (pAKT)
measure: EC50
Your answer should be a number followed by the unit of measure.

What value of EC50 has been recorded for this entry: C=CC(=O)N1CCc2nc(-c3nc(-c4ccc5c(c4)CCNC5)c4ccsc4c3-c3ccc(F)cc3OCCOC)sc2C1 [Compound 58] 1.16 µM

Values from patent US20250230138A1
